- Assay info: Clinical plasma and CSF pharmacokinetics, part A
- Format: in vivo
- Measurement conditions: human, in vivo; part A, across dose schedules, after repeated dosing; read-out: terminal elimination half-life
Quantity name: half-life

Request: What value of half-life has been reported for the following compound? Cn1cc(-c2cc(S(C)(=O)=O)ccc2OCC2CC2)c2ccccc2c1=O
Response: 40 to 70 h

* * *

- Assay info: Plasma pharmacokinetics and food effect, part C
- Type: in vivo, human
- Measurement conditions: human, plasma, oral, 45 mg/day, day 4, fasted, n = 15, read-out: Cmax, GM (% GCV)
Quantity name: Cmax (ng/mL)
Numeric only. Scale: ng/mL

Request: What value of Cmax has been reported for the following compound? Cn1cc(-c2cc(S(C)(=O)=O)ccc2OCC2CC2)c2ccccc2c1=O
Response: 1120
